Hello, the source for this data is ChEMBL document CHEMBL4296182, in case you need it.

- Tested on: Escherichia coli
- assay_explanation: Antibacterial activity against Escherichia coli ATCC 25922 (CO-ADD:GN_001); MIC in CAMBH media using NBS plates, by Resazurin F(560/590)
- Assay type: functional
- reported_conditions: Concentration 20 uM, ASSAY_TEST Inhibition of Bacterial Growth, detection method Resazurin, Fluorescence (ex560/em590), MEDIA CAMHB, plate type 384well, CORNING #3640, time 18 hr
measurement_kind: Inhibition

Record excerpt, results attached:
# compound, Inhibition
records = [
    ("COc1ccc2c(C)cc(C)nc2n1", "1.95%"),
    ("C#CCCOC(=O)Nc1ccccc1", "7.7%"),
    ("CC(=C/c1ccccc1)/C=C1/NC(=S)NC1=O", "-0.7%"),
    ("CN(C)c1ccc(/C=C2/C=C(c3ccc4c(c3)CCCC4)OC2=O)cc1", "16.55%"),
    ("Oc1ccc2ccccc2c1/N=N/c1ccc(F)cc1", "-0.77%"),
    ("O=C(Cn1nnc(N2CCCCC2)n1)N/N=C/c1ccccc1O", "7.77%"),
]

Dear colleague, could you please provide Inhibition for the compounds listed below?
1. CSc1nc(O)nnc1Sc1ccccc1
2. Sc1nccn1-c1ccccc1Cl
3. CC1CCC(C(C)C)C(NC(=O)c2ccncc2)C1 (stereo unspecified)

a:
1. 6.74%
2. -3.3%
3. 6.28%

# return Inhibition for each item in the list
1. NC(=O)NC(=O)c1nccnc1C(=O)O
2. CN1CN(C)C(c2ccncc2)=C1c1ccncc1
3. CSc1nc(O)cc(Cl)n1
4. CC1(C)N=C(N)N=C(N)N1c1cccc(CN)c1.CCS(=O)(=O)O
5. Nc1cc(O)nc2ncnn12
6. CCN1CCCCC(=N\O)/C(=N/O)CCCC1
7. CCN(CC)CCNc1c(C)nc(C#N)c(N)[n+]1[O-]
8. Cl.Nc1ncnc2c(C3OC(CO)C(O)C3O)c[nH]c12 (stereo unspecified)

a:
10.6%
-2.65%
7.44%
11.68%
7.96%
1.26%
11.24%
-11.86%

Look at each compound and report its Inhibition.
1. CC(C)NC(=O)c1ccc(C(C)C)cc1
2. CSc1nc(O)c(Nc2cccc(Cl)c2)c(O)n1
3. CC1CC=C(O)C12OCC(C)(C)CO2 (stereo unspecified)
4. Cc1ccc2c(c1)sc1nncn12
5. CC(C)(C)c1ccc(C(=O)N2CCOC23CCCCC3)cc1
6. O=c1cc(-c2cccnc2)oc2c1ccc1ccccc12
7. CCn1c2ccccc2nc2cc3c(cc21)c(Cl)c(=O)c1ccccc13

a:
1. 11.28%
2. -1.67%
3. 5.59%
4. 12.68%
5. 4.56%
6. 18.5%
7. 3.84%
